- Experimental System: integrin CD11c/CD18 (Homo sapiens)
- Construct: expressed in transfected cells; host or cells: K562 (ATCC)
- Sequence (P20702 with tags, fused parts or gaps): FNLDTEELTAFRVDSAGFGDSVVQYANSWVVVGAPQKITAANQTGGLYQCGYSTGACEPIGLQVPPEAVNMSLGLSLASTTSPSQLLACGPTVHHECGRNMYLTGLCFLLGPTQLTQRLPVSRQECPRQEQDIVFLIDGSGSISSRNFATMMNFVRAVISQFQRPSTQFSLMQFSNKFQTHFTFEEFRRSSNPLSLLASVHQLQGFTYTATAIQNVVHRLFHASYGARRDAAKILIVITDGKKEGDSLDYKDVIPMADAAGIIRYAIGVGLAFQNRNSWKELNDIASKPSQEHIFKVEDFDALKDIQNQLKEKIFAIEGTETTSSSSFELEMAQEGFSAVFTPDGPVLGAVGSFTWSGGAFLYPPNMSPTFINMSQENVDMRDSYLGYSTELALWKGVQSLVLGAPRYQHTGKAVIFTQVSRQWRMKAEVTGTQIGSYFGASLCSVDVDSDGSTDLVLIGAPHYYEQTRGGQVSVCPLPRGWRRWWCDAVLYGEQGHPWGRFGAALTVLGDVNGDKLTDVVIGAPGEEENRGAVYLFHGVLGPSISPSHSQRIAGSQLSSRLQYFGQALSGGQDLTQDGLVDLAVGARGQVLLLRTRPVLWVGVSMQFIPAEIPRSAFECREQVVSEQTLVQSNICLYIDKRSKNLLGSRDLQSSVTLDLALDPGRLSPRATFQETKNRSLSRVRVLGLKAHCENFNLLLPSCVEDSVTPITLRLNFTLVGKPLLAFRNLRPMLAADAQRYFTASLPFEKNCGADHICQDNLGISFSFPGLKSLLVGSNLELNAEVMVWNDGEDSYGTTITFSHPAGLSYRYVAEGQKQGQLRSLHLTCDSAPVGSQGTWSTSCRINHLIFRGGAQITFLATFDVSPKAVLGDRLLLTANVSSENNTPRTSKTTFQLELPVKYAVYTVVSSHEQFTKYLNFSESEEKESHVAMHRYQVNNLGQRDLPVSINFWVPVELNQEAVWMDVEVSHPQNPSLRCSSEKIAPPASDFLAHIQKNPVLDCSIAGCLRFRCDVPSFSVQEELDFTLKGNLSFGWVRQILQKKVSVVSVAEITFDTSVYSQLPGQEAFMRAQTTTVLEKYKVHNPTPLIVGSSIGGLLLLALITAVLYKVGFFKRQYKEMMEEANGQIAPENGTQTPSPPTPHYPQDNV
- Sequence (P05107 23-769 partner): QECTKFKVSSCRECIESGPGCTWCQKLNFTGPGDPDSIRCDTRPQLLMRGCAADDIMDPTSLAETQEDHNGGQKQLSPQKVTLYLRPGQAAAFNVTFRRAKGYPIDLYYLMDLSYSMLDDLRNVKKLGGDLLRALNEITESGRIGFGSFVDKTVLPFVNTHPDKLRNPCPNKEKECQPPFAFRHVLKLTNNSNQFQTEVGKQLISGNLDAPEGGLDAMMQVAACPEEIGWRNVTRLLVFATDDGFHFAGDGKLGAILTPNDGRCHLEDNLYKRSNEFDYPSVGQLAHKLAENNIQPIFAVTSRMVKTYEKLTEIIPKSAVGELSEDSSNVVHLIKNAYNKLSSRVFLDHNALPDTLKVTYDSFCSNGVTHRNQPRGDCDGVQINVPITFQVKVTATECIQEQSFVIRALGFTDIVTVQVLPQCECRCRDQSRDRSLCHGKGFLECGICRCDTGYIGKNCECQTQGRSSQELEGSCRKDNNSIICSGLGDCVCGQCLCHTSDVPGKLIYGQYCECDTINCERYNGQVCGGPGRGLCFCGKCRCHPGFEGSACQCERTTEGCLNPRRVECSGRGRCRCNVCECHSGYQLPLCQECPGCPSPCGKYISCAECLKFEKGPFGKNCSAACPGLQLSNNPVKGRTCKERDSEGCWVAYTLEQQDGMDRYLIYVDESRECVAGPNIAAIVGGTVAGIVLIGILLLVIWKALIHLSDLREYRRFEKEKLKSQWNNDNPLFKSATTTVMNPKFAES
- Experimental Details: HTS cell adhesion assay, K562 CD11c/CD18 cells on immobilized fibrinogen
- Type: cell-based
pEC50: −log10 of the molar value.
Reported Endpoint: pEC50

The following molecules have reported results that may help.
INSERT INTO measurements (molecule, reported_endpoint, numeric_value) VALUES
  ('Cc1nc(C)c(C(=O)Nc2nc3c(C)cccc3s2)o1 [Compound 3244965]', 'pEC50', 5.39),
  ('COc1ccc(/C=C2/SC(=O)N(CC(=O)Nc3cc(C)on3)C2=O)cc1OC [Compound 1554642]', 'pEC50', 5.28),
  ('O=C(Nc1ccc(NC(=O)c2ccc(S(=O)(=O)c3ccccc3)cc2)cc1)c1ccccc1 [Compound 1144109]', 'pEC50', 5.51),
  ('CC(=O)c1ccc(NC(=O)c2ccc3nc(-c4ccco4)c(-c4ccco4)nc3c2)cc1 [Compound 1331726]', 'pEC50', 5.58),
  ('CCn1c(=NC(=O)c2ccc(N3C(=O)CCC3=O)cc2)sc2c(OC)ccc(OC)c21 [Compound 2150886]', 'pEC50', 5.67);

P = COCCCNC(=O)c1c(N)n(/N=C/c2cccs2)c2nc3ccccc3nc12 [Compound 6880740]
Q = Cc1ccc(-c2ccc(/C=C(\C#N)C(=O)Nc3cc(C)nn3-c3ccccc3)o2)cc1 [Compound 1554430]
stdin: Quick one: lower pEC50, P or Q ? Field: selected label. Fill in the label of the entry you choose.
stdout: P
